experimentalProtocol: Bleomycin model of pulmonary fibrosis: right lung hydroxyproline content, left lung fibrosis score
Type: in vivo, Wistar rats
runConditions: Wistar, rat, plasma, inhaled or intranasal; Bleomycin + IT 0.9 mg/kg; read-out: Plasma AUCO-2 hrs
assayEndpoint: AUC (ng·h/mL)
The reply should contain only the number, in ng·h/mL.

Exercise: In one line, give reported AUC of the entry Cc1ccc(=O)n(-c2ccccc2)c1 .
Key: 3000

---

experimentalProtocol: Extended-duration intratracheal and oral pharmacokinetic study
Assay type: in vivo, Wistar rats
runConditions: oral gavage 100 mg/kg
assayEndpoint: Lung Tissue AUC(0-2 hr) (µg·h/g)
The figure you give is taken to be in µg·h/g; do not add the unit.

Exercise: Note Lung Tissue AUC(0-2 hr) for the molecule shown: Cc1ccc(=O)n(-c2ccccc2)c1
Key: 27.9
